Listing of recorded Mean % WT Binding by entry.
# tested system: human CD33 R190A (human, UniProt P20138 18-364)
# Sequence (P20138 18-364 R190A limits assumed): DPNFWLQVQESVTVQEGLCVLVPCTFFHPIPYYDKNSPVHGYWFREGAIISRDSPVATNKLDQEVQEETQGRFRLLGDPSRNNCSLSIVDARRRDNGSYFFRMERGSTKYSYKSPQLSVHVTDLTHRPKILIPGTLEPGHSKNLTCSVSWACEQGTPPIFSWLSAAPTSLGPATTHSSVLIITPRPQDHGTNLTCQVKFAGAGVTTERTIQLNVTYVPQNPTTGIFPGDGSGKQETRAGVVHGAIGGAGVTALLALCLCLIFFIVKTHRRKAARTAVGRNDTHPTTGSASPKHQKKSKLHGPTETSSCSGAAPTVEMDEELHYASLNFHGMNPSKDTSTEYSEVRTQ
# assay explanation: alanine scan, flow cytometry, HEK293-T;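 note: antibody binding to each alanine-substituted CD33 mutant expressed transiently in HEK293-T, read as fluorescence minus background, mean of duplicates, relative to wild-type CD33 set as 100%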
measure: Mean % WT Binding

binder	value
Refmab #1 (antibody, V domains shown, In the alanine scan antibodies were used as IgG or Fab; also called hP67.6) VH: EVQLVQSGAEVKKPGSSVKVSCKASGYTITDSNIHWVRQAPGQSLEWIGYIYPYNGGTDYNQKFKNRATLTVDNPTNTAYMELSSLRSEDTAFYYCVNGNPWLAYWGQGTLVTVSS VL: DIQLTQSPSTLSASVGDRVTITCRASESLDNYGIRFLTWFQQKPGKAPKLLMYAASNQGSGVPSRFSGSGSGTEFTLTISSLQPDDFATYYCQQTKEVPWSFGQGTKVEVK	96.6%
Refmab #3 (antibody, V domains shown, In the alanine scan antibodies were used as IgG or Fab) VH: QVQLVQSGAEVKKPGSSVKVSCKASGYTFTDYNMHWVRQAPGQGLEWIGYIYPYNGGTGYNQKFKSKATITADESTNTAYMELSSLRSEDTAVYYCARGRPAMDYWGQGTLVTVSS VL: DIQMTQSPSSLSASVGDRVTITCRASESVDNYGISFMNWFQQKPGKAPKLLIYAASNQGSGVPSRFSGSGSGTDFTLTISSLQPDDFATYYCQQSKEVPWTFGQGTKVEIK	124%
Refmab #2 (antibody, V domains shown, In the alanine scan antibodies were used as IgG or Fab) VH: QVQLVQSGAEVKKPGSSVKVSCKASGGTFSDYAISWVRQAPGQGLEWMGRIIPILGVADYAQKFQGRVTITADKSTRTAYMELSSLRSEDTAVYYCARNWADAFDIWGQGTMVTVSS VL: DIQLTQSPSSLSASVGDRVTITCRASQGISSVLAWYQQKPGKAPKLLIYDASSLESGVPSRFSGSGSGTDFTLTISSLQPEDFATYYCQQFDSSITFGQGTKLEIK	114%
